- Tested on: Rattus norvegicus
- assay_comment: Compound was tested for its effect on systolic blood pressure in anaesthetized rats after i.v. administration at a dose of 4.12 umol/kg.
- Assay type: functional, Artery
Labelling: Activity reported below -20 delta mmHg becomes Condition met; at or above becomes Condition not met.

Activity under -20 delta mmHg? Item: "CC(C)=CC/N=C(/N)NCCCCNC(=O)/C=C/c1ccccc1.CS(=O)(=O)O"
Condition met

Activity under -20 delta mmHg? Item: "COc1ccc(CC(=O)NCCCC/N=C(\N)NCC=C(C)C)cc1OC.CS(=O)(=O)O"
Condition met

Activity under -20 delta mmHg? Item: "COc1ccc(C#CC(=O)NCCCC/N=C(\N)NCC=C(C)C)cc1OC.CS(=O)(=O)O"
Condition not met

Activity under -20 delta mmHg? Item: "COc1ccc(/C=C/C(=O)NCCCCC/N=C(\N)NCC=C(C)C)cc1OC.CS(=O)(=O)O"
Condition met

Activity under -20 delta mmHg? Item: "COc1ccc([C@H]2C[C@@H]2C(=O)NCCCC/N=C(\N)NCC=C(C)C)cc1OC.CS(=O)(=O)O"
Condition met

Activity under -20 delta mmHg? Item: "COc1ccc(/C=C/C(=O)NCCCCCC/N=C(\N)NCC=C(C)C)cc1OC.CS(=O)(=O)O"
Condition not met

Activity under -20 delta mmHg? Item: "COc1ccc(CCC(=O)NCCCC/N=C(\N)NCC=C(C)C)cc1OC.CS(=O)(=O)O"
Condition not met

Activity under -20 delta mmHg? Item: "COc1ccc(C(=O)NCCCC/N=C(\N)NCC=C(C)C)cc1.CS(=O)(=O)O"
Condition met

Activity under -20 delta mmHg? Item: "COc1ccc(/C=C/C(=O)NCCCC/N=C(\N)NCC=C(C)C)cc1OC.CS(=O)(=O)O"
Condition met

----------
- Test system: Rattus norvegicus
- assay_comment: Compound was tested for its effect on respiratory frequency in anaesthetized rats after i.v. administration at a dose of 4.12 umol/kg.
- Assay type: functional
Each entry gets NO if its RF stays under 10 delta beats min-1, and YES if its RF is 10 delta beats min-1 or above.

Tell me whether RF is at least 10 delta beats min-1 here: "COc1ccc(/C=C/C(=O)NCCCCC/N=C(\N)NCC=C(C)C)cc1OC.CS(=O)(=O)O"
NO

Tell me whether RF is at least 10 delta beats min-1 here: "COc1ccc(C#CC(=O)NCCCC/N=C(\N)NCC=C(C)C)cc1OC.CS(=O)(=O)O"
YES

Tell me whether RF is at least 10 delta beats min-1 here: "COc1ccc([C@H]2C[C@@H]2C(=O)NCCCC/N=C(\N)NCC=C(C)C)cc1OC.CS(=O)(=O)O"
YES

Tell me whether RF is at least 10 delta beats min-1 here: "COc1ccc(/C=C/C(=O)NCCCCCC/N=C(\N)NCC=C(C)C)cc1OC.CS(=O)(=O)O"
NO

Tell me whether RF is at least 10 delta beats min-1 here: "COc1ccc(CCC(=O)NCCCC/N=C(\N)NCC=C(C)C)cc1OC.CS(=O)(=O)O"
NO

Tell me whether RF is at least 10 delta beats min-1 here: "COc1ccc(C(=O)NCCCC/N=C(\N)NCC=C(C)C)cc1.CS(=O)(=O)O"
YES

Tell me whether RF is at least 10 delta beats min-1 here: "COc1ccc(/C=C/C(=O)NCCCC/N=C(\N)NCC=C(C)C)cc1OC.CS(=O)(=O)O"
YES

Tell me whether RF is at least 10 delta beats min-1 here: "COc1ccc(CC(=O)NCCCC/N=C(\N)NCC=C(C)C)cc1OC.CS(=O)(=O)O"
YES

Tell me whether RF is at least 10 delta beats min-1 here: "CC(C)=CC/N=C(/N)NCCCCNC(=O)/C=C/c1ccccc1.CS(=O)(=O)O"
YES
